Below is a list of entries, each paired with its recorded binding signal value.
Target: ETS1 (Homo sapiens, UniProt P14921 1-441)
Sequence: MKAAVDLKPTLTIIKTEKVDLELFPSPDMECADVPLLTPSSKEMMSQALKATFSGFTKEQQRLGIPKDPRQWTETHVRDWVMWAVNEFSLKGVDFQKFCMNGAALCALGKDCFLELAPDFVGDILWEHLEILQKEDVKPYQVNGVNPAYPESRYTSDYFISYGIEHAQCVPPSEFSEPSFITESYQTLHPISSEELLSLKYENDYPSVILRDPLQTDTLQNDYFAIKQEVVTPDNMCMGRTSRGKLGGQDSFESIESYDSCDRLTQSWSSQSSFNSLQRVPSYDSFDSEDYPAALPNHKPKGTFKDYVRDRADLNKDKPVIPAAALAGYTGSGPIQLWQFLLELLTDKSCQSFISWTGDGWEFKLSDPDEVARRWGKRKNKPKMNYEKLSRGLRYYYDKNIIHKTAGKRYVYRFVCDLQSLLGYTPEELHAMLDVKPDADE
Assay: custom PBM; custom protein-binding microarray; buffer, salt, pH and temperature not stated; high values mean tight binding
Conditions: dsDNA, one strand shown
In all, about 1,300 sequences were measured (“log fluorescence intensity”: median about 8.3, highest 2% from about 12 on). The full list was thinned out, with the highest values kept by preference.
MEASURE: binding signal

BIOSEQUENCE: GGAACAAGGCCCAGGGTAACACCGGAAGTGGGCTTAGTCTTGATTCGCTTGACGCTGCTG
MEASURE: binding signal
VALUE OBSERVED: 11.9 log fluorescence intensity
//
BIOSEQUENCE: GCTGCTGCGGTGCATACCCCACCGGATGTAACCCCGGTCTTGATTCGCTTGACGCTGCTG
MEASURE: binding signal
VALUE OBSERVED: 10 log fluorescence intensity
//
BIOSEQUENCE: GCTGCAGCGGTGCATACCCCACCGGATGTGACCCCGGTCTTGATTCGCTTGACGCTGCTG
MEASURE: binding signal
VALUE OBSERVED: 10.4 log fluorescence intensity

====

Biological target: ETS1 (Homo sapiens, UniProt P14921 1-441)
Sequence: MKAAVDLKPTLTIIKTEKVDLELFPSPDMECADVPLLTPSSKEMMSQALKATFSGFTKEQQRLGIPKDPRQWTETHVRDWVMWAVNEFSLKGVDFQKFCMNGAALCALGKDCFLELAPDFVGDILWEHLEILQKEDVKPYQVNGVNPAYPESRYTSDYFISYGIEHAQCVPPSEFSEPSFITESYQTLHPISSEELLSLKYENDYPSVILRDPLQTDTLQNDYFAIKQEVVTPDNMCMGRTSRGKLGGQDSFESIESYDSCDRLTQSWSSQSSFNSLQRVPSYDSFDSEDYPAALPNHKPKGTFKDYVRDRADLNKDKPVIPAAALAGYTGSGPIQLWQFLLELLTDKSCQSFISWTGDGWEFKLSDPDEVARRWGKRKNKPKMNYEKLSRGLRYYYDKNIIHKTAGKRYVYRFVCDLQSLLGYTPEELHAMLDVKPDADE
Test: custom PBM; custom protein-binding microarray; buffer, salt, pH and temperature not stated; high values mean tight binding
Details: dsDNA, one strand shown
Whole data set: some 1,300 sequences, median “log fluorescence intensity” near 8.3, cut for the highest 2% near 12. For the sample, the highest values were picked, then their nearest neighbours and some sequences at random.
Below is a list of entries, each paired with its recorded binding signal value.

BIOSEQUENCE: GGGAAAAGGCCCAGGGTAACACCGGAAGTGGGCTTAGTCTTGATTCGCTTGACGCTGCTG
binding signal: 11.9 log fluorescence intensity

BIOSEQUENCE: TAAAGGGAAGACGCTTGTGGTAGTTCCGGGTATTAAGTCTTGATTCGCTTGACGCTGCTG
binding signal: 8.41 log fluorescence intensity

BIOSEQUENCE: CGAAAAAGGCCCAGGGTAACACCGGAAGTGGGCTTAGTCTTGATTCGCTTGACGCTGCTG
binding signal: 12 log fluorescence intensity

BIOSEQUENCE: CGGAAGTGTCGTAAACGTCGGATATCCGGTTATTCTGTCTTGATTCGCTTGACGCTGCTG
binding signal: 12.1 log fluorescence intensity

BIOSEQUENCE: GGAAAAAGGCCCCGGGTAACACCGGAAGTGGGCTTAGTCTTGATTCGCTTGACGCTGCTG
binding signal: 12.6 log fluorescence intensity

BIOSEQUENCE: GGAAAAAGGCCCACGGTAACACCGGAAGTGGGCTTAGTCTTGATTCGCTTGACGCTGCTG
binding signal: 12.2 log fluorescence intensity

BIOSEQUENCE: CGGAAGTGTCGTAAACGTCGGATATCGGGTTCTTCTGTCTTGATTCGCTTGACGCTGCTG
binding signal: 8.65 log fluorescence intensity

BIOSEQUENCE: TACTGACATATATATGCGAATGCACATGAATAGACCGTCTTGATTCGCTTGACGCTGCTG
binding signal: 8.43 log fluorescence intensity

BIOSEQUENCE: TAAAGGGAAGACGGTTGTGGTAGTTCCGGGTAGTAAGTCTTGATTCGCTTGACGCTGCTG
binding signal: 8.59 log fluorescence intensity

BIOSEQUENCE: GCAAAAAGGCCCAGGGTAACACCGGAAGTGGGCTTAGTCTTGATTCGCTTGACGCTGCTG
binding signal: 11.9 log fluorescence intensity

Sourced from paper PMC6602471
